B1: KLHL12 (parent)
chain: REESLPNLLQYVRMPLLTPRYITD

Variants of: B1
Test: protein stability index of a GFP-peptide fusion (GPS, HEK-293T) (PSI 1-6); higher = more stable;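 note: lentivirally expressed fusions sorted by FACS into six bins by GFP to DsRed ratio, PSI derived from sequencing read proportions per bin multiplied by bin number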
Conditions: c terminus: a fixed tail appended
Measure: protein stability index
// return a plain number; no unit text

Reported protein stability index ( `R13P` ) = 2.97

Memo: `E3C` , reported protein stability index: 2.5

`P15L` has a reported protein stability index of 4.9

According to the records, this variant `Y11F` displays protein stability index of 2.92

Entry `L16D` — recorded protein stability index = 2.69

In plain terms, `L9I` has a documented protein stability index of 2.32

# protein stability index (variant: `R1T` ) is 2.19

// field: protein stability index; key: `P19L` ; value = 2.48

Given item `E3K` , the value recorded as its protein stability index is 2.78

Measured protein stability index of `S4D` : 2.56

Briefly, protein stability index measured for `Y21N` : 3.25

Note to self: protein stability index recorded for `R13K` was 2.67

// field: protein stability index; key: `Q10S` ; value = 2.33

Reported protein stability index for `T23Q` was 2.65

Reported protein stability index for `M14Y` was 2.58

The reported value for `L9H` in terms of protein stability index is 3.29

Just so you know, measured protein stability index for `T18Q` came out at 2.5

Item: `N7D` | protein stability index: 2.93

Given item `R13H` , the value recorded as its protein stability index is 2.38

Recorded result, `E3T` , protein stability index: 2.67

// protein stability index lookup, variant = `L17D` , result: 3.43

So for `Y11N` , the logged protein stability index turned out to be 3.47

// field: protein stability index; key: `P6E` ; value = 2.15

Values compiled from the supplement of paper PMC10567573.
